experiment: Volume of distribution at steady state in Sprague-Dawley rat at 4 mg/kg administered as single IV bolus dose; assay type: ADME, organism-based; conditions: in vivo, read-out: Vdss
// reported Vd for each item listed
Write the answer as a number in L/kg, unit excluded.

>  <smiles.code>
COc1ccc(Cl)cc1NC[C@@H]1[C@@H](c2ccc(S(N)(=O)=O)cc2)C1(C)C

>  <observable>
Vd

>  <readout.units>
L/kg

>  <assay.value>
1.8

$$$$

Lab note: next compound to report on.
Query block: Could you share which Vd value was measured for COc1ccc(Cl)cc1NC[C@H]1[C@H](c2ccc(S(N)(=O)=O)cc2)C1(C)C ?
Result block: 5.1

These data points were gathered from ChEMBL document CHEMBL4364238.
